Reported IC50 by item:
Biological target: Enoyl-acyl carrier reductase (Toxoplasma gondii, UniProt Q6UCJ9)
Sequence (Q6UCJ9 whole entry): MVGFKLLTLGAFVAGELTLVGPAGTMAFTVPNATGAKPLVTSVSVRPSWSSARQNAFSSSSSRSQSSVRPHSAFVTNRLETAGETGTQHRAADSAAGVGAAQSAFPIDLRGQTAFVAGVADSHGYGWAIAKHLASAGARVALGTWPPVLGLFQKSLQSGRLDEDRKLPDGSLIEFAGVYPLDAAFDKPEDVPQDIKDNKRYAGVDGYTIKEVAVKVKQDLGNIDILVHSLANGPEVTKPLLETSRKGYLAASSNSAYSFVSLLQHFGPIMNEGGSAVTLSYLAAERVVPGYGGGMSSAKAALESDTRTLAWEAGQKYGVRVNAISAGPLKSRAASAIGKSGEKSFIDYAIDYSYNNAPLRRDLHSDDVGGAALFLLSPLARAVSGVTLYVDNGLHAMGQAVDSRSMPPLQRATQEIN
Experiment: Inhibition of Toxoplasma gondii enoyl reductase
Parameter measured: IC50

- Compound string: "O=c1cc(OCCCn2c3ccccc3c3ccccc32)ccn1Cc1ccccc1Cl"
  Measured: "> 2000 nM"
- Compound string: "C/C=C/C=C/C(=O)Nc1ccc(Oc2ccc(Cl)cc2O)cc1"
  Measured: "> 2000 nM"
- Compound string: "CCCc1cc(O)c(Oc2ccc(C(N)=O)cc2)c(O)c1"
  Measured: "280 nM"
- Compound string: "O=c1cc(OCc2ccccc2)ccn1Cc1ccc([N+](=O)[O-])cc1Cl"
  Measured: "> 20000 nM"
- Compound string: "O=[N+]([O-])c1ccccc1Oc1ccc(Cl)cc1O"
  Measured: "290 nM"
- Compound string: "CCCc1ccc(Oc2ccc(C#N)cc2Cl)c(O)c1"
  Measured: "< 20 nM"
- Compound string: "C/C=C/C=C/C(=O)Nc1ccc(Oc2ccc(Cl)cc2Cl)c(O)c1"
  Measured: "2000 nM"
- Compound string: "N#Cc1ccc(Cn2ccc(OCc3ccccc3)cc2=O)c(Cl)c1"
  Measured: "> 20000 nM"
- Compound string: "CCCc1ccc(Oc2ccc(N)cc2)c(O)c1"
  Measured: "< 20 nM"
- Compound string: "CCCc1ccc(Oc2ccc([N+](=O)[O-])cc2)c(O)c1"
  Measured: "< 20 nM"
- Compound string: "O=[N+]([O-])c1ccc(Oc2ccc(Cl)cc2O)cc1"
  Measured: "45 nM"
- Compound string: "Oc1cc(Cl)ccc1Oc1cccnc1"
  Measured: "2800 nM"
- Compound string: "CCCc1ccc(Oc2cccc(B(O)O)c2)c(O)c1"
  Measured: "174 nM"
- Compound string: "Nc1ncccc1C(=O)Nc1cc(Cl)ccc1Oc1ccccc1"
  Measured: "> 20000 nM"
- Compound string: "O=c1cc(OCc2ccccc2)ccn1Cc1ccccc1Cl"
  Measured: "> 20000 nM"
- Compound string: "CCCc1cc(O)c(Oc2ccc(C#N)cc2Cl)c(O)c1"
  Measured: "< 20 nM"
- Compound string: "CCCc1ccc(Oc2ccc([N+](=O)[O-])cc2[N+](=O)[O-])c(O)c1"
  Measured: "< 20 nM"
- Compound string: "CC(C)(C)C(=O)Oc1cc(Cl)ccc1Oc1ccc(Cl)cc1Cl"
  Measured: "3000 nM"
- Compound string: "Nc1cc(Cl)ccc1Oc1ccccc1"
  Measured: "> 20000 nM"
- Compound string: "CCCc1ccc(Oc2ccc([N+](=O)[O-])cc2Cl)c(O)c1"
  Measured: "< 20 nM"
- Compound string: "COc1ccc(COc2ccn(Cc3ccccc3Cl)c(=O)c2)cc1"
  Measured: "> 20000 nM"

====

Reported inhibition at 10 µM by item:
Target: UniProtKB P10635
Sequence (P10635 whole entry): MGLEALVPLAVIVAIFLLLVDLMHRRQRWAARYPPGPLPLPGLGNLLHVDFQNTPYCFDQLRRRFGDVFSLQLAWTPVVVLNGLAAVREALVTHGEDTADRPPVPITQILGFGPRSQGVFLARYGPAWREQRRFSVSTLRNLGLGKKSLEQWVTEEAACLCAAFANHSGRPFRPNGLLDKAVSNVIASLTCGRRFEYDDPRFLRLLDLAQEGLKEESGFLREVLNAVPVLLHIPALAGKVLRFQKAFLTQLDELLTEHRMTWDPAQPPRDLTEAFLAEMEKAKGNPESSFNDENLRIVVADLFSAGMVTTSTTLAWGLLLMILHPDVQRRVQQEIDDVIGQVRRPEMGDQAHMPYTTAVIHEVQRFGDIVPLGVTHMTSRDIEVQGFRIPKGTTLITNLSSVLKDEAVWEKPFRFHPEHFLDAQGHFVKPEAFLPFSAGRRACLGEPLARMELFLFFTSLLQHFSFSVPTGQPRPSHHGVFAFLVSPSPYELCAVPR
Assay: Inhibition of CYP2D6 at 10 uM
Type: ADME

- Compound string: "O=[N+]([O-])c1ccc(Oc2ccc(Cl)cc2O)c(Cl)c1"
  Measured target: "UniProtKB P10635"
  inhibition at 10 µM: "< 22%"
- Compound string: "CCCc1ccc(Oc2ccc(C#N)cc2Cl)c(O)c1"
  Measured target: "UniProtKB P10635"
  inhibition at 10 µM: "< 22%"

====

Reported MIC50 by item:
Test system: Toxoplasma gondii
Assay: Antiparasitic activity against Toxoplasma gondii infected in HFF after 24 hrs by [3H]uracil incorporation assay
Format: functional

- Compound string: "Nc1cc(Cl)ccc1Oc1ccccc1"
  Value unit: "µM"
  Prefix operator: "="
  MIC50: 6
- Compound string: "NC(=O)c1ccc(Cn2ccc(OCc3ccccc3)cc2=O)c(Cl)c1"
  Value unit: "µM"
  Prefix operator: ">"
  MIC50: 24
- Compound string: "Oc1cc(Cl)ccc1Oc1cccnc1"
  Value unit: "µM"
  Prefix operator: ">"
  MIC50: 6
- Compound string: "O=C(c1ccc([N+](=O)[O-])cc1)n1c(=O)[nH]c2ccccc21"
  Value unit: "µM"
  Prefix operator: ">"
  MIC50: 24
- Compound string: "COc1ccc(NC(=O)COc2ccc([N+](=O)[O-])cc2)cc1"
  Value unit: "µM"
  Prefix operator: "="
  MIC50: 23
- Compound string: "CCCc1ccc(Oc2ccc([N+](=O)[O-])cc2Cl)c(O)c1"
  Value unit: "µM"
  Prefix operator: "="
  MIC50: 4
- Compound string: "CCCc1ccc(Oc2cccc([N+](=O)[O-])c2)c(O)c1"
  Value unit: "µM"
  Prefix operator: ">"
  MIC50: 6
- Compound string: "CC(=O)Nc1ccc(Oc2ccc(Cl)cc2O)cc1"
  Value unit: "µM"
  Prefix operator: ">"
  MIC50: 24
- Compound string: "O=C(O)c1ccc(Cn2ccc(OCc3ccccc3)cc2=O)c(Cl)c1"
  Value unit: "µM"
  Prefix operator: ">"
  MIC50: 24
- Compound string: "O=c1[nH]c2ccccc2n1Cc1ccc([N+](=O)[O-])cc1"
  Value unit: "µM"
  Prefix operator: "="
  MIC50: 20
- Compound string: "Oc1ccc(Oc2ccc(O)cc2O)cc1"
  Value unit: "µM"
  Prefix operator: ">"
  MIC50: 6
- Compound string: "Nc1ncccc1C(=O)Nc1cc(Cl)ccc1Oc1ccccc1"
  Value unit: "µM"
  Prefix operator: "="
  MIC50: 17
